Protocol: Plasma concentrations (PK), Example 1
Type: in vivo, human
Measurement Context: human, plasma, oral, 50 mg, 50 mg QD; Week 4; Peak; read-out: Plasma concentration, Mean
Readout Label: level at 672 h (ng/mL)
Field format: number, assumed ng/mL, no unit text.

Per the records, this compound ( CC(=O)NCCCC[C@@H]1NC(=O)[C@H](Cc2c[nH]c3c(C)cccc23)NC(=O)[C@H]([C@@H](C)O)NC(=O)[C@H](CC(N)=O)NC(=O)[C@@H](NC(C)=O)C(C)(C)SSC(C)(C)[C@@H](C(=O)N[C@@H](Cc2ccc(OCCN)cc2)C(=O)N[C@@H](Cc2ccc3ccccc3c2)C(=O)NC2(C(=O)N[C@@H](CCC(=O)O)C(=O)N[C@@H](CC(N)=O)C(=O)N[C@@H](Cc3cccnc3)C(=O)N(C)CC(N)=O)CCOCC2)NC1=O [IL-23 receptor antagonist peptide] ) has level at 672 h equal to 0.564

* * *

Protocol: Plasma concentrations (PK), Example 1
Type: in vivo, human
Measurement Context: human, plasma, oral, 25 mg, weight >90 kg, 25 mg BID, Week 12, Peak; read-out: Plasma concentration, Median
Readout Label: level at 2016 h (ng/mL)
Field format: number, assumed ng/mL, no unit text.

Per the records, this compound ( CC(=O)NCCCC[C@@H]1NC(=O)[C@H](Cc2c[nH]c3c(C)cccc23)NC(=O)[C@H]([C@@H](C)O)NC(=O)[C@H](CC(N)=O)NC(=O)[C@@H](NC(C)=O)C(C)(C)SSC(C)(C)[C@@H](C(=O)N[C@@H](Cc2ccc(OCCN)cc2)C(=O)N[C@@H](Cc2ccc3ccccc3c2)C(=O)NC2(C(=O)N[C@@H](CCC(=O)O)C(=O)N[C@@H](CC(N)=O)C(=O)N[C@@H](Cc3cccnc3)C(=O)N(C)CC(N)=O)CCOCC2)NC1=O [IL-23 receptor antagonist peptide] ) has level at 2016 h equal to 0.365

* * *

Protocol: Plasma concentrations (PK), Example 1
Assay type: in vivo, human
Measurement Context: human, plasma, oral, 50 mg, 50 mg QD; Week 4; Peak; read-out: Plasma concentration, Geometric Mean
Procedure: For QD dosing, peak concentration was defined as any PK sample taken between 0.25 to <6 hours after the last morning dose and trough concentration was at least 20 hours after the last morning dose. For BID dosing, peak concentration was defined as any PK sample taken between 0.25 to <4 hours after the last dose and trough concentration was at least 8 hours after the last dose.
Readout Label: level at 672 h (ng/mL)
Field format: number, assumed ng/mL, no unit text.

Per the records, this compound ( CC(=O)NCCCC[C@@H]1NC(=O)[C@H](Cc2c[nH]c3c(C)cccc23)NC(=O)[C@H]([C@@H](C)O)NC(=O)[C@H](CC(N)=O)NC(=O)[C@@H](NC(C)=O)C(C)(C)SSC(C)(C)[C@@H](C(=O)N[C@@H](Cc2ccc(OCCN)cc2)C(=O)N[C@@H](Cc2ccc3ccccc3c2)C(=O)NC2(C(=O)N[C@@H](CCC(=O)O)C(=O)N[C@@H](CC(N)=O)C(=O)N[C@@H](Cc3cccnc3)C(=O)N(C)CC(N)=O)CCOCC2)NC1=O [IL-23 receptor antagonist peptide] ) has level at 672 h equal to 0.481

* * *

Protocol: Plasma concentrations (PK), Example 1
Assay type: in vivo, human
Measurement Context: human, plasma, oral, 25 mg, 25 mg QD; Week 8; Intermediate; read-out: Plasma concentration, Geometric Mean
Readout Label: level at 1344 h (ng/mL)
Field format: number, assumed ng/mL, no unit text.

Per the records, this molecule ( CC(=O)NCCCC[C@@H]1NC(=O)[C@H](Cc2c[nH]c3c(C)cccc23)NC(=O)[C@H]([C@@H](C)O)NC(=O)[C@H](CC(N)=O)NC(=O)[C@@H](NC(C)=O)C(C)(C)SSC(C)(C)[C@@H](C(=O)N[C@@H](Cc2ccc(OCCN)cc2)C(=O)N[C@@H](Cc2ccc3ccccc3c2)C(=O)NC2(C(=O)N[C@@H](CCC(=O)O)C(=O)N[C@@H](CC(N)=O)C(=O)N[C@@H](Cc3cccnc3)C(=O)N(C)CC(N)=O)CCOCC2)NC1=O [IL-23 receptor antagonist peptide] ) has level at 1344 h equal to 0.168
